target: full-length human LSD1 (Homo sapiens (Human)); experiment: In vitro enzyme inhibition assay LSD-1 (TR-FRET); assay type: biochemical; settings: TR-FRET, 0.1 nM LSD1, 50 nM H3K4me1-biotin peptide, 2 μM FAD, pH7.3; read-out: LSD1 IC50
pIC50: −log10 of the molar value. Where a name gives a salt, the structure may show the parent alone.
observation-type: pIC50

compound: Cn1cnc2cc(-c3cnc(N4CCC5(CCNC5)CC4)nc3-c3ccc(C#N)c(F)c3)cnc21 [Example 137]
pIC50: > 7.00
--
compound: N#Cc1ccc(-c2nc(N3CCC(N)CC3)ncc2-c2ccc3ncnn3c2)cc1 [Example 127]
pIC50: 6.00 to 7.00
--
compound: Cn1cc2cc(-c3cnc(N4CCNCC4)nc3-c3ccc(C#N)c(F)c3)ccc2n1 [Example 109]
pIC50: > 7.00
--
compound: Cc1ccc(-c2cnc(N3CC4CNCC(C3)O4)nc2-c2ccc(C#N)cc2)cc1 [Example 41]
pIC50: 6.00 to 7.00
--
compound: COc1ccc(-c2nc3ccn(C[C@@H]4CCNC4)c3cc2-c2ccc(C#N)cc2)cc1 [Example 49, HCl salt]
pIC50: > 7.00
--
compound: Cc1ccc(-c2cnc(N[C@@H]3C[C@H]4CNC[C@H]4C3)nc2-c2ccc(C#N)cc2)cc1 [Example 27]
pIC50: 6.00 to 7.00
--
compound: Cc1ccc(-c2cnc(N3CCC4(CC3)CNC4)nc2-c2ccc(C#N)cc2)cc1 [Example 113]
pIC50: > 7.00

INPUT: Can you look up pIC50 on full-length human LSD1 (Homo sapiens (Human)) for Cc1ccc(-c2nc3cnn(CC4CCNCC4)c3cc2-c2ccc(C#N)cc2)cc1 [Example 14] ?
OUTPUT: > 7.00

====

Some compounds, each annotated with its measured pIC50.
system: THP-1 (AML) cells; assay: LSD1 CD11b cellular assay (flow cytometry); assay type: cell-based; details: Homo sapiens, 96 h; CD11b expression in THP-1 (AML) cells, flow cytometry, 4 days incubation; read-out: Cellular IC50
pIC50: −log10 of the molar value.

INPUT: Quick check: pIC50 of N#Cc1ccc(-c2nc(NC[C@H]3CCNC3)ncc2-c2ccc(F)cc2)cc1 ?
OUTPUT: 6.00 to 7.00

INPUT: Same question, Cn1nncc1C#Cc1cnc(N2CCC(N)CC2)nc1-c1ccc(C#N)c(F)c1 this time
OUTPUT: 6.00 to 7.00

INPUT: Now try CNc1nc(N2CCCNCC2)nc(-c2ccc(C#N)cc2)c1-c1ccc2nn(C)cc2c1 .
OUTPUT: > 7.00

INPUT: Now consider COc1ccc(-c2cnc(N3CCC(N)CC3)nc2-c2ccc(C#N)cc2)cc1F .
OUTPUT: > 7.00

====

tested on: THP-1 (AML) cells; assay: LSD1 CD11b cellular assay (flow cytometry); format: cell-based; conditions: Homo sapiens, 96 h; CD11b expression in THP-1 (AML) cells, flow cytometry, 4 days incubation; read-out: Cellular IC50
observation-type: IC50

Solved cases below.
compound: CNc1nc(N2CCC(N)CC2)nc(-c2ccc(C#N)c(F)c2)c1-c1cnc2c(cnn2C)c1
assay-target: THP-1 (AML) cells
IC50: < 100 nM
//
compound: COc1ccc(-c2cnc(N3CCC(N)CC3)nc2-c2ccc(C#N)cc2)cc1
assay-target: THP-1 (AML) cells
IC50: < 100 nM
//
compound: CNc1nc(N2CCC(N)CC2)nc(-c2ccc(C#N)cc2)c1-c1cnn(CC(F)(F)F)c1
assay-target: THP-1 (AML) cells
IC50: < 100 nM
//
compound: Cn1cnc2cc(-c3cnc(N4CCC(N)CC4)nc3-c3ccc(C#N)cc3)c(F)c(F)c21
assay-target: THP-1 (AML) cells
IC50: < 100 nM
//
compound: N#Cc1ccc(-c2nc(N3CCC4CNCC4CC3)ncc2-c2ccc3cn[nH]c3c2)cc1 (stereo not drawn)
assay-target: THP-1 (AML) cells
IC50: < 100 nM
//
compound: CNc1nc(N2CCC(N)CC2)nc(-c2ccc(C#N)cc2)c1-c1ccc2c(cnn2C)c1
assay-target: THP-1 (AML) cells
IC50: < 100 nM
//
compound: COc1nc(N2CCC(N)CC2)nc(-c2ccc(C#N)cc2)c1-c1cnc(N(C)C)nc1
assay-target: THP-1 (AML) cells
IC50: < 100 nM
//
compound: CNc1ncc(-c2cnc(N3CCC(N)CC3)nc2-c2ccc(C#N)c(F)c2)cn1
assay-target: THP-1 (AML) cells
IC50: 100 to 1000 nM

INPUT: GET /values?readout=IC50&item= Cn1nnc2cc(-c3cnc(N4CCC(N)CC4)nc3-c3ccc(C#N)c(F)c3)cnc21
OUTPUT: < 100 nM

INPUT: Cc1ccc(-c2cnc(NC[C@H]3CCNC3)nc2-c2ccc(C#N)cc2)cc1 , same question.
OUTPUT: < 100 nM

INPUT: Check Cn1cc2cc(-c3cnc(N4CCC(N)CC4)nc3-c3ccc(C#N)cc3)ncc2n1 too.
OUTPUT: 100 to 1000 nM

INPUT: Then what about the compound Cn1cc2cc(-c3cnc(N4CCC(N)C(O)C4)nc3-c3ccc(C#N)c(F)c3)ccc2n1 (stereo not drawn) ?
OUTPUT: < 100 nM

====

test system: THP-1 (AML) cells; experiment: LSD1 CD11b cellular assay (flow cytometry); type: cell-based; conditions: Homo sapiens, 96 h; CD11b expression in THP-1 (AML) cells, flow cytometry, 4 days incubation; read-out: Cellular IC50
pIC50: −log10 of the molar value. Structures can show the parent of a compound that is named as a salt.
observation-type: pIC50

Solved entries:
compound: Cn1ncc2cc(-c3cnc(N4CCC(N)CC4)nc3-c3ccc(C#N)cc3)cnc21
observation-type: pIC50
result: > 7.00

compound: CNc1nc(N2CCC(N)CC2)nc(-c2ccc(C#N)c(F)c2)c1-c1ccc2c(cnn2C)c1
observation-type: pIC50
result: > 7.00

compound: N#Cc1ccc(-c2nc(N3CCC(N)CC3)ncc2-c2ccc(OCC3CC3)nc2)cc1
observation-type: pIC50
result: > 7.00

compound: Cc1nn(C)c2ccc(-c3cnc(N4CCC(N)CC4)nc3-c3ccc(C#N)c(F)c3)cc12
observation-type: pIC50
result: > 7.00

compound: COc1ccc(-c2nc3ccn(C[C@@H]4CCNC4)c3cc2-c2ccc(C#N)cc2)cc1 [Example 49, HCl salt]
observation-type: pIC50
result: > 7.00

Here is the next item to consider.
INPUT: Could you tell me which pIC50 is on file for Cc1ccc(-c2nc3ccn(C[C@H]4CNCCO4)c3cc2-c2ccc(C#N)cc2)cc1 ?
OUTPUT: 5.00 to 6.00
